Target: JMJD2E (Homo sapiens, UniProt B2RXH2)
Experiment: AlphaLISA assay, JMJD2E histone demethylase inhibition
Format: biochemical
Details: Table 2; JMJD2E; AlphaLISA, in triplicate; read-out: IC50
MEASUREMENT_NAME: pIC50
Scale for pIC50: -log10 of concentration given in mol/L; no unit attached.

Examples from the recorded data:
Which pIC50 is listed for O=C(O)c1ccnc2c(O)cccc12 ?
5.51

Okay, and CN(C)CCCNC(=O)c1ccc(-c2cnc3c(O)cccc3c2)cc1 ?
4.92

Okay, and CN1CCN(C(=O)c2cccc(-c3cc(O)c4ncccc4c3)c2)CC1 ?
5.37

Okay, and CN(C)CC1CCN(C2CCN(C(=O)c3cccc(-c4cc(O)c5ncccc5c4)c3)CC2)CC1 ?
6.00

Okay, and O=C(c1ccc(-c2cc(O)c3ncccc3c2)cc1)N1CCNCC1 ?
5.79

---
Which pIC50 is listed for O=C(NCCCN1CCNCC1)c1cccc(-c2cc(O)c3ncccc3c2)c1 ?
5.91

Okay, and CN(C)CCCN1CCCN(C(=O)c2cccc(-c3cc(O)c4ncccc4c3)c2)C1 ?
5.82

Okay, and CN(C)CCCNC(=O)c1ccc(-c2cc(O)c3ncccc3c2)cc1 ?
6.04

====

Target: JMJD2E (Homo sapiens)
Assay: AlphaLISA assay, JMJD2E histone demethylase inhibition
Assay type: biochemical
Quick list: pIC50 per entry.
Scale for pIC50: -log10 of concentration given in mol/L; no unit attached.

Examples from the recorded data:
Param readout = pIC50; param system = JMJD2E (Homo sapiens); param query = O=C(O)c1ccc(O)c2ncc(N3CCCC3)cc12 [Compound 14] ; response: value
5.65

Okay, and O=C(O)c1ccc(O)c2ncc(NC3CCNC3)cc12 (stereo not shown) [Compound 15] ?
5.75

Okay, and O=C(O)c1ccc(O)c2ncc(N3CC4CNCC4C3)cc12 (stereo not shown) [Compound 17] ?
5.83

---
Param readout = pIC50; param system = JMJD2E (Homo sapiens); param query = CN1CCN(c2cnc3c(O)ccc(C(=O)O)c3c2)CC1 [Compound 10] ; response: value
5.65

====

Biological target: JMJD2E (Homo sapiens)
Sequence (B2RXH2 1-506): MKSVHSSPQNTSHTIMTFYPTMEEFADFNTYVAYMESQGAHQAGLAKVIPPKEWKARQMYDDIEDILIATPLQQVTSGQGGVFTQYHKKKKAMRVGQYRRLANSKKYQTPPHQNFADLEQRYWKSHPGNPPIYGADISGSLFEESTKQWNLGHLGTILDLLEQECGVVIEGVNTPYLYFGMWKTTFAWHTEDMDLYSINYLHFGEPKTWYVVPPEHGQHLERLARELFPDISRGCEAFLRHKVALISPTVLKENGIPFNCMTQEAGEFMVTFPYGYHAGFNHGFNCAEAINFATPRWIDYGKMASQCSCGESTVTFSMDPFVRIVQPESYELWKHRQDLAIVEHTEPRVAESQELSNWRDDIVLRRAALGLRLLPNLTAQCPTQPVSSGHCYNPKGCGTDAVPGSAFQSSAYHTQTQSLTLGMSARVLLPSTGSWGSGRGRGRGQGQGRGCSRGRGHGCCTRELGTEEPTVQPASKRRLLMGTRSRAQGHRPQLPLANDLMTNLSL
Assay: AlphaLISA assay, JMJD2E histone demethylase inhibition
Type: biochemical
Conditions: Table 3; JMJD2E; AlphaLISA, in triplicate; read-out: IC50
Please assign F whenever IC50 is at or above 4 µM, and T whenever it is below.

Solved cases below.
Strictly below 4 µM in IC50? O=C(O)c1ccc(O)c2ncc(-c3ccc(C(=O)N4CCNCC4)cc3)cc12 [Compound 23]
T

Okay, and O=C(O)c1ccc(O)c2ncc(NCC3CCCN(CCc4ccccc4)C3)cc12 (stereo not shown) [Compound 21] ?
T

Okay, and O=C(O)c1ccc(O)c2ncc(-c3ccc(N4CCOCC4)cc3)cc12 [Compound 19] ?
F

Okay, and CN1CCN(C(=O)c2ccc(-c3cnc4c(O)ccc(C(=O)O)c4c3)cc2)CC1 [Compound 24] ?
F

---
Strictly below 4 µM in IC50? O=C(O)c1ccc(O)c2ncc(-c3cccc(N4CCOCC4)c3)cc12 [Compound 20]
F

Okay, and CN(C)CCCNC(=O)c1ccc(-c2cnc3c(O)ccc(C(=O)O)c3c2)cc1 [Compound 25] ?
T

====

Quick list: pIC50 per entry.
Molecular target: JMJD2E (Homo sapiens, UniProt B2RXH2)
Assay: AlphaLISA assay, JMJD2E histone demethylase inhibition
Assay type: biochemical
Scale for pIC50: -log10 of concentration given in mol/L; no unit attached.

Which pIC50 is listed for O=C(O)c1ccc(O)c2ncc(C3CCNCC3)cc12 [Compound 12] ?
5.88

---
Which pIC50 is listed for N[C@@H]1CCN(c2cnc3c(O)ccc(C(=O)O)c3c2)C1 [Compound 16] ?
5.93

Okay, and O=C(O)c1ccc(O)c2ncc(N3CCOCC3)cc12 [Compound 11] ?
5.76

Okay, and NC1CCN(c2cnc3c(O)ccc(C(=O)O)c3c2)CC1 [Compound 13] ?
5.80

Okay, and NC(=O)c1cccc(-c2cnc3c(O)ccc(C(=O)O)c3c2)c1 [Compound 28] ?
5.31

====

Quick list: pIC50 per entry.
Target: JMJD2E (Homo sapiens)
Test: AlphaLISA assay, JMJD2E histone demethylase inhibition
Format: biochemical
Settings: Table 3; JMJD2E; AlphaLISA, in triplicate; read-out: IC50
Scale for pIC50: -log10 of concentration given in mol/L; no unit attached.

Param readout = pIC50; param system = JMJD2E (Homo sapiens); param query = O=C(O)c1ccc(O)c2ncc(N3CCCCC3CCc3ccccn3)cc12 (stereo not shown) ; response: value
5.33

Okay, and O=C(O)c1ccc(O)c2ncc(N3CCN(Cc4ccccc4)CC3)cc12 ?
5.30

Okay, and O=C(O)c1ccc(O)c2ncc(N3CCCN(CCCc4ccncc4)CC3)cc12 ?
5.77

Okay, and O=C(O)c1ccc(O)c2ncc(N3CCCN(C4CCCC4)CC3)cc12 ?
5.68
